Target: CD40 on peripheral blood mononuclear cells (PBMC) from healthy donors (human, UniProt P25942 21-277)
Sequence (P25942 21-277): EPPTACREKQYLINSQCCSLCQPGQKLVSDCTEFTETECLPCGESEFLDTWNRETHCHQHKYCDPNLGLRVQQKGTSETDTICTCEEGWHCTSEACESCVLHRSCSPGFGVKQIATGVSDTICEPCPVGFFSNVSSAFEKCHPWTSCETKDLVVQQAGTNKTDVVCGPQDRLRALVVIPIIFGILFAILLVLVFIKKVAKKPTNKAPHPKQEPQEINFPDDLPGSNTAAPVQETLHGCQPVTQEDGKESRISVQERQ
Assay: cell-based or functional assay
outcome_measure: Percentage inhibition of TNF secretion at 10 ng/ml (%)
Report as a plain number; the unit % is understood.

>  <binder>
PG102 wild-type recombinant antibody (antibody, human IgG4 S228P, kappa, V domains shown, Human IgG4pro(deltaK) heavy, kappa light; also called PG102_Wt; PG102 wt) VH: QVKLQESGPGLVKPSETLSITCTVSGFSLSRYSVYWIRQPPGKGPEWMGMMWGGGSTDYSTSLKSRLTISKDTSKSQVSLKMNSLRTDDTAMYYCVRTDGDYWGQGTTVTVSS VL: ELQLTQSPLSLPVTLGQPASISCRSSQSLANSNGNTYLHWYLQRPGQSPRLLIYKVSNRFSGVPDRFSGSGSGTDFTLKISRVEAEDVGVYYCSQSTHVPWTFGGGTKLEIKR

>  <value_reported>
81.2

$$$$

# ---- query binder ----
// query // returns reported Percentage inhibition of TNF secretion at 10 ng/ml for input PG102_Var2 (antibody, human IgG4 S228P, kappa, V domains shown, IgG4pro(deltaK)/kappa; also called FFP104_Var2) VH: QVQLQESGPGLVKPSETLSITCTVSGFSLSRYSVYWVRQPPGKGLEWMGMMWGGGSTDYSTSLKSRLTISKDTSKSQVSLKMSSLTAADTAVYYCVRTDGDYWGQGTLVTVSS VL: ELQLTQSPLSLPVTLGQPASISCRSSQSLASSSGNTYLHWYLQRPGQSPRLLIYKVSNRFSGVPDRFSGSGSGTDFTLKISRVEAEDVGVYYCSQSTHVPWTFGGGTKLEIKR
// result 87.2

Just for reference, patent US11396552 is where these values come from.
